Test system: Plasmodium falciparum NF54 gametocytes
Experiment: viability index relative to DMSO control (fraction); higher = less gametocyte killing
Settings: gametocyte stage: Stage I viability index; 12.5 µM; incubation time: 72 h
Labelling field: enter MET if recorded viability index is less than 0.3. Enter NOT MET if it equals or exceeds that cut-off.

Reference set (3 entries):
| MOLECULE | CAT |
| --- | --- |
| COc1ccc(NC(=O)C2c3ccccc3C(=O)N(CC(C)C)C2c2cccs2)cc1 (centres undefined) | MET |
| O=C1c2ccccc2C2=Nc3ccccc3SC(c3cccc(F)c3)C12 (centres undefined) | NOT MET |
| CCC(c1ccccc1)c1nn2c(-c3cccs3)nnc2s1 (centres undefined) | NOT MET |

We now examine a further molecule.
INPUT: Check if viability index falls below 0.3 for Cc1cccc(N2C(=O)C3C(C2=O)C2(c4ccccc4)C(=O)C3(c3ccccc3)C(c3ccc4c(c3)OCO4)=C2c2ccc3c(c2)OCO3)c1 (centres undefined) .
OUTPUT: NOT MET
